Overview of recorded pKd for various molecules
Target: Galectin-3 (Homo sapiens (Human))
Sequence (P17931 whole entry): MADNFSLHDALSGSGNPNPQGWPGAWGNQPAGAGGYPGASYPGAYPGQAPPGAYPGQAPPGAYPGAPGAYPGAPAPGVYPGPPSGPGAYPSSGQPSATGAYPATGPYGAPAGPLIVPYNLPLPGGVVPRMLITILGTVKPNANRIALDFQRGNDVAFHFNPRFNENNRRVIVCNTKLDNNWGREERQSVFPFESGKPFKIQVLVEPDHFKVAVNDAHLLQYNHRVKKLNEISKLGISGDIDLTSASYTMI
Test: Fluorescence anisotropy assay, compound as inhibitor of galectin / fluorescein tagged saccharide probe interaction
pKd: −log10 of the molar value.

molecule	pKd
OC[C@H]1O[C@H](Sc2cncc(Br)c2)[C@H](O)[C@@H](n2cc(-c3cscn3)nn2)[C@H]1O	5.39
OCC1O[C@H](Sc2ccc(Cl)c(Cl)c2)C(O)[C@@H](n2cc(-c3nc(Br)cs3)nn2)[C@H]1O (some centres unmarked)	6.09
N#Cc1ncc(Br)cc1S[C@H]1O[C@H](CO)[C@H](O)[C@H](n2cc(-c3nccs3)nn2)[C@H]1O	5.92
OCC1O[C@H](Sc2cncc(Br)c2)C(O)[C@@H](n2cc(-c3nccs3)nn2)[C@H]1O (some centres unmarked)	5.34
OC[C@H]1O[C@H](Sc2cnc(C(F)(F)F)c(Br)c2)[C@H](O)[C@@H](n2cc(-c3cscn3)nn2)[C@H]1O	5.54
OC[C@H]1O[C@H](Sc2ccc(Cl)c(Br)c2)[C@H](O)[C@@H](n2cc(-c3nccs3)nn2)[C@H]1O	5.36
OC[C@H]1O[C@H](Sc2cncc(Br)c2)[C@H](O)[C@@H](n2cc(-c3cccs3)nn2)[C@H]1O	5.90
OC[C@H]1O[C@H](Sc2ccc(Cl)c(Cl)c2)[C@H](O)[C@@H](n2cc(-c3cscn3)nn2)[C@H]1O	5.28
N#Cc1ccc(S[C@H]2OC(CO)[C@H](O)[C@H](n3cc(-c4cscn4)nn3)C2O)cc1Cl (some centres unmarked)	5.21
OC[C@H]1O[C@H](Sc2cncc(Cl)c2)[C@H](O)[C@@H](n2cc(-c3nccs3)nn2)[C@H]1O	5.74
Cc1nc(-c2cn([C@@H]3[C@@H](O)[C@@H](Sc4cncc(Br)c4)O[C@H](CO)[C@@H]3O)nn2)cs1	5.49
OC[C@H]1O[C@H](Sc2ccc(Cl)c(Cl)c2)[C@H](O)[C@@H](n2cc(-c3ccc(F)s3)nn2)[C@H]1O	6.01
N#Cc1ncc(S[C@H]2O[C@H](CO)[C@H](O)[C@H](n3cc(-c4nccs4)nn3)[C@H]2O)cc1Cl	5.36
OC[C@H]1O[C@H](Sc2cnc(C(F)(F)F)c(Br)c2)[C@H](O)[C@@H](n2cc(-c3ccsc3)nn2)[C@H]1O	5.92
